- run-description: E. coli growth modulation, two-sided OD650, primary screen, E. coli filamentation project, strain DRC41, 24 h (AID 1093);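 also: MC1000 strain lacking acrAB efflux and sulA so SOS filamentation is blocked; test concentration not given here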
- condition-details: OD650, 24 h, higher = more signal, called active from +8 up or from −8 down
readout-name: z-score
// return a plain number; no unit text

## Input Need z-score, item COCCOC(=O)N1C(=O)[C@@]2(c3cc(C#CCC(C(=O)OC)C(=O)OC)ccc31)[C@H](c1ccccc1OCCO)N1[C@H](c3ccccc3)[C@H](c3ccccc3)OC(=O)[C@H]1[C@@H]2C(=O)N1CCCCCCC1
## Output -0.366

----------
- run-description: anti-His antibody binders, primary screen, artefact control for SMM control protein annotation, biochemical, small-molecule microarray, 635 nm fluorescence (AID 1128);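 also: score merges feature fluorescence with signal-to-noise for each printed compound spot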
- condition-details: anti-His Alexa647 antibody binding, higher = more signal
Measured composite z-score accompanies every entry in the list below.
Respond with the number and no other words.

molecule	composite z-score
C=C[C@H](OC)[C@@H](OC(=O)Nc1ccc(SC)cc1)c1ccc(O)c(F)c1	0.705

## Input Report composite z-score for COCCOC(=O)N1C(=O)[C@@]2(c3cc(C#CCNC(N)=O)ccc31)[C@H](c1ccc(OCCO)cc1)N1[C@H](c3ccccc3)[C@H](c3ccccc3)OC(=O)[C@H]1[C@@H]2C(=O)Nc1nc2ccccc2s1 please.
## Output 0.0799

## Input Query (molecule): C#CCNC(/C=C/c1ccccc1)CO (centres undefined) ; field requested: composite z-score
## Output 0.638

## Input Item CO[C@H]1COC(=O)[C@@H](Cc2ccccc2)NC(=O)[C@@H](C)COC(=O)CC=C[C@@H]1C has what recorded composite z-score?
## Output -0.28

## Input I would be grateful if you could share the reported composite z-score for O=C/C=C/c1ccc(/C=C/c2ccccc2)cc1 .
## Output 1.52

## Input Look up composite z-score: C=C(CCCC)/C(=C/C[C@H](OC(=O)c1ccncc1)c1cccc(OCCO)c1)c1cc(C(=O)OC)ccc1OC
## Output 1.06

----------
The molecules listed here are annotated with their composite z-score.
- target-under-test: Fibroblast growth factor 10 (Homo sapiens)
- run-description: FGF10 binders on small-molecule microarrays, primary screen, biochemical, small-molecule microarray, 635 nm fluorescence (AID 1102)
- condition-details: FGF10 binding, fluorescence 635 nm, higher = more signal
Give a plain numeric answer without units written out.

molecule	composite z-score
CO[C@H]1COC(=O)[C@H](C)COC(=O)[C@H](Cc2ccccc2)NC(=O)CC=C[C@H]1C	0.245
C[N+](C)(C)CCCCNC(=O)[C@H]1C[C@H]2C(=O)NCC(=O)N2[C@H]1c1cccc(OCCO)c1	1.45
CC(C)(C)OC(=O)CC[C@]1(C(=O)NCCN2CCOCC2)N=C(c2ccc(OCCCO)cc2)O[C@H]1c1ccccc1CN=[N+]=[N-]	-0.0042
O=C1NC(=O)C2C1C=CC(C(O)C=Cc1ccc([N+](=O)[O-])cc1)N2Nc1ccccn1 (centres undefined)	0.267
O=C1c2ccccc2[C@](Cc2ccccc2I)(C(=O)NCC(F)(F)F)[C@H](c2ccc(CO)cc2)N1Cc1ccccc1C(F)(F)F	0.222

## Input I would be grateful if you could share the reported composite z-score for CCOC(=O)C1=CC[C@@H](c2ccccc2)N(S(=O)(=O)c2ccc(C)cc2)[C@H]1C .
## Output 1.4

## Input Quick check: composite z-score of O=C1O[C@@H](c2ccccc2)[C@@H](c2ccccc2)N2[C@@H](c3ccccc3OCCO)[C@]3(C(=O)Nc4ccc(C#CC5=CCCCC5)cc43)[C@@H](C(=O)O)[C@H]12 ?
## Output 0.289

## Input Name the reported composite z-score value associated with the molecule C=CCC1=C[C@H]2[C@H]([C@@H]3C=C[C@]2(CC=C)C(=O)[C@]32CO2)[C@@]2(CO2)C1=O
## Output 1.14

## Input What measured composite z-score goes with N#Cc1ccc(NN2C(C(O)c3ccc(I)cc3)C=CC3C(=O)N(c4ccccc4)C(=O)C32)cc1 (centres undefined) ?
## Output 0.549
